# experimental.target: human α-synuclein pre-formed fibrils (Human Alpha Synuclein Pre-formed Fibrils Type II, StressMarq SPR-317) (human, UniProt P37840 1-140)
# measurement.notes: SPR Biacore T200, antibody captured on Protein A chip, α-syn PFF analyte, 1:1 model

| binder | unit.label | koff |
| --- | --- | --- |
| hu1E4(V1_VL1) (antibody, human IgG1, V domains shown, Monospecific; fused to human IgG1 and kappa constant regions; also called humanized 1E4(V1_VL1); hu1E4(Ver.1_VL1)) VH: QVQLVQSGAEVKKPGASVKVSCKASGYTFTNYLIEWVRQAPGQGLEWMGVINPGSGGTNYNEKFKGRVTMTRDTSISTAYMELSRLRSDDTAVYYCASGNYDTYWGQGTLVTVSS VL: DIVMTQTPLSLSVTPGQPASISCRSSQSLVHSNGNTYLHWYLQKPGQSPQLLIYKVSNRFSGVPDRFSGSGSGTDFTLKISRVEAEDVGVYYCSQSTHVPRTFGQGTKLEIK | s⁻¹ | 0.000439 |
